target: Gamma-secretase; test: Inhibitory concentration against Gamma-secretase in whole cell inhibition assay using SH-SY5Y cells; assay type: functional, cell-based, Homo sapiens
reported-property: log10 IC50 (log10 of the value in nM)
All values: log10 IC50 [nM].

**Q:** Report the value of log10 IC50 obtained on Gamma-secretase for O=C(Nc1ccc2c(c1)CC1CCC(C2)C1NS(=O)(=O)c1ccc(Cl)s1)OCc1ccccc1 (configuration not stated) .
**A:** 1.36

**Q:** Report the value of log10 IC50 obtained on Gamma-secretase for CC1CCCN1CCOc1ccc2c(c1)CC1CCC(C2)C1NS(=O)(=O)c1ccc(Cl)s1 (configuration not stated) .
**A:** 2.53

**Q:** Report the value of log10 IC50 obtained on Gamma-secretase for O=C(CN1CCCC1)Nc1ccc2c(c1)CC1CCC(C2)C1NS(=O)(=O)c1ccc(Cl)s1 (configuration not stated) .
**A:** 0.85

**Q:** Report the value of log10 IC50 obtained on Gamma-secretase for O=S(=O)(NC1C2CCC1Cc1cc(OCCN3CCOCC3)ccc1C2)c1ccc(Cl)s1 (configuration not stated) .
**A:** 0.70

**Q:** Report the value of log10 IC50 obtained on Gamma-secretase for O=S(=O)(NC1C2CCC1Cc1cc(/C=C/CN3CCOCC3)ccc1C2)c1ccc(Cl)s1 (stereo in doubt; form 2) .
**A:** 2.50
